Listed here: items and their measured Ki.
Test target: UT receptors in HSMM (Human Skeletal Muscle Myoblasts) (Homo sapiens)
Sequence (Q9UKP6 whole entry): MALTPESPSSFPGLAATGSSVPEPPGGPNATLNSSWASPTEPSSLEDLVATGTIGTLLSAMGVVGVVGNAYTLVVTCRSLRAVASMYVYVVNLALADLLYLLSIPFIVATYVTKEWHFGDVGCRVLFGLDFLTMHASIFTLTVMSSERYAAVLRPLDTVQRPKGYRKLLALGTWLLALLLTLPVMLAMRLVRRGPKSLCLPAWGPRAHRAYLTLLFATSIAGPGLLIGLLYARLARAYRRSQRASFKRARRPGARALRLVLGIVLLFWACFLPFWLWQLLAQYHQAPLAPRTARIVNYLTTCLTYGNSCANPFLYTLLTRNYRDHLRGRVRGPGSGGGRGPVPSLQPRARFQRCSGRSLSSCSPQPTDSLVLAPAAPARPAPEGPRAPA
Procedure details: Human Radioligand Binding Assay ((^125I)-U-II binding to intact HSMM)
// units = nM; emit number, no label

Asked: Which value of Ki has been reported for `CCN1CCN(c2cccc3c2CN([C@H](CCCN2Cc4ccccc4C2)c2ccc(OC)c(OC)c2)C3=O)CC1` in the records?
Given back: 24

Asked: Look at this molecule and give its reported Ki. `COc1ccc([C@@H](CCCOc2ccccc2)N2Cc3c(cccc3N3CCN(Cc4ccccc4)CC3)C2=O)cc1OC`
Given back: 32

Asked: Sample `COc1ccc([C@@H](CCCNc2nccc(C(F)(F)F)n2)N2Cc3c(cccc3N3CCNCC3)C2=O)cc1OC` — what was its Ki?
Given back: 120

Asked: Tell me the measured Ki of `CCNCCC[C@H](c1ccc(OC)c(OC)c1)N1Cc2c(cccc2N2CCN(CC)CC2)C1=O` , please.
Given back: 199

Asked: Value lookup for Ki; key = `COc1ccc([C@@H](CCCNc2nccc(C(F)(F)F)n2)N2Cc3c(cccc3N3CCN(Cc4ccccc4)CC3)C2=O)cc1OC`
Given back: 45

***
Asked: Give its Ki value. Item: `CCN1CCN(c2cccc3c2CN([C@H](CCCNc2nc(OC)cc(OC)n2)c2ccc(OC)c(OC)c2)C3=O)CC1`
Given back: 81

Asked: For the molecule shown here, `CCN1CCN(c2cccc3c2CN([C@H](CCCNS(=O)(=O)c2cn(C)cn2)c2ccc(OC)c(OC)c2)C3=O)CC1` , give the reported Ki.
Given back: 56

Asked: Returns the measured Ki for the input molecule. Input: `CCN1CCN(c2cccc3c2CN([C@H](CCCN(C)S(=O)(=O)c2cn(C)c(C)n2)c2ccc(OC)c(OC)c2)C3=O)CC1`
Given back: 162

Asked: For the molecule `CCN1CCN(c2cccc3c2CN([C@H](CCCN(C)Cc2ccc(F)cc2)c2ccc(OC)c(OC)c2)C3=O)CC1` , what Ki is on record?
Given back: 47

Asked: What Ki value was documented for this molecule, CCN1CCN(c2cccc3c2CN(C(CC2CCN(S(=O)(=O)O)CC2)c2ccc(OC)c(OC)c2)C3=O)CC1 (stereo not drawn) ?
Given back: 74

====

Item-by-item account of IC50
Test target: rat GPR14 (U-II receptor) (Rattus norvegicus, UniProt P49684)
Sequence (P49684 1-386): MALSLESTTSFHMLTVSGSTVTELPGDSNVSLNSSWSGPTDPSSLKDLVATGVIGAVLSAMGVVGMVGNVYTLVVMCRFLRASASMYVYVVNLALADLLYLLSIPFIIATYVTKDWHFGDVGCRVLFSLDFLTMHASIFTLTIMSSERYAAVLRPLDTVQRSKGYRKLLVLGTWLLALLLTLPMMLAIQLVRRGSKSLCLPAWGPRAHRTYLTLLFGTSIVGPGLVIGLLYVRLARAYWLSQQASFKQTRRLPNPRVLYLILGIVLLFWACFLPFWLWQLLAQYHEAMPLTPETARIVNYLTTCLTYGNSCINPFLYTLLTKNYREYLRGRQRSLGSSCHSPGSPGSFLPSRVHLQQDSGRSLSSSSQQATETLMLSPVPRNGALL
Procedure details: Rat UII Calcium Mobilization FLIPR Assay
Particulars: CHO cells transfected with rat GPR14; antagonist activity after 5 min incubation vs agonist (Ac)-CFWK(2-NaI)C-NH2 at 1 nM
Quick reminder: number only, in nM, skip the unit.

Past entries and their recorded results:
Asked: Recorded IC50 for `COc1ccc([C@@H](CCCOCc2ccccc2)N2Cc3c(cccc3N3CCNCC3)C2=O)cc1OC` , please?
Given back: 22

Asked: Quick one: IC50 of `CCN1CCN(c2cccc3c2CN([C@H](CCCNc2ccccn2)c2ccc(OC)c(OC)c2)C3=O)CC1` ?
Given back: 74

Asked: So what's the measured IC50 for this one? `CCN1CCN(c2cccc3c2CN([C@H](CCCNS(N)(=O)=O)c2ccc(OC)c(OC)c2)C3=O)CC1`
Given back: 81

Next:
Asked: Value lookup for IC50; key = `CCN1CCN(c2cccc3c2CN([C@H](CCCNS(=O)(=O)c2cnc(C)n2C)c2ccc(OC)c(OC)c2)C3=O)CC1`
Given back: 2

Asked: Item `CCN1CCN(c2cccc3c2CN([C@H](CCCNC(N)=O)c2ccc(OC)c(OC)c2)C3=O)CC1` has what recorded IC50?
Given back: 143

Asked: Param item = `CCN1CCN(c2cccc3c2CN([C@H](CCCNc2nccc(C)n2)c2ccc(OC)c(OC)c2)C3=O)CC1` ; retrieve measured IC50.
Given back: 19

Asked: Query: IC50; subject: `COc1ccc([C@@H](CCCN(C)S(=O)(=O)c2cccs2)N2Cc3c(cccc3N3CCNCC3)C2=O)cc1OC`
Given back: 39

Hello, the source for this data is patent US8008299B2, in case you need it.
